# Tested on: HCT-15
# Procedure Text: NCI tumour cell line growth inhibition, 48 h
Measured Quantity: log10 GI50 (log10 of the value in µM)
Please keep in mind that the values are log10 of GI50 expressed in µM.

COC1=CC(=O)C(Br)=CC1=O: 1.33
C/C(=N\NC(N)=S)c1nc2cccnc2[nH]1: 1.73
N#Cc1c(-c2ccc([N+](=O)[O-])cc2)c(C#N)c(=O)n(NS(=O)(=O)c2ccccc2)c1S: 1.57
Cc1c(/N=N/c2ccccc2)c(-c2ccccc2)n(C2OC(CO)C(O)C(O)C2O)c(=S)c1C#N (stereo unspecified): 0.70
O=C1C=CC(=O)C1(Br)Br: 0.81
O=C(CSc1nnc(-c2ccc(/N=C\c3ccc(Cl)cc3)cc2)o1)Nc1ccc([N+](=O)[O-])cc1: 1.26
O=C(O)CCO/N=C1/C(=C2/C(=O)Nc3ccccc32)Nc2ccccc21: 0.82
CC(C)C(Sc1nc(-c2ccccc2)c(-c2ccccc2)[nH]1)C(=O)NNC(=S)Nc1ccccc1 (stereo unspecified): 1.25
Sc1nnc(CNc2ccc(-c3nnc(S)n3-c3ccc(Cl)cc3)cc2)n1-c1ccc(Cl)cc1: 1.68
CCCS(=O)(=O)Nc1ccc(Nc2c3ccccc3nc3ccccc23)c(OC)c1: 0.13

Query string: # log10 GI50 lookup, item O=C(Oc1ccccc1)N1c2ccccc2[C@@]23O[C@]24CCC[C@H]3C#C/C=C\C#C[C@H]14
Result string: 1.12

Query string: Would you kindly repeat that for CC(C)(C)C1=NN=C2c3ccccc3C(=O)C21 (stereo unspecified) ?
Result string: 1.47

Query string: Would you kindly repeat that for CC(C)(C)[Si](C)(C)OC[C@H](/C=C\CCCC(=O)O)NC1(c2ccccc2)c2ccccc2-c2ccccc21 ?
Result string: 1.05

Query string: Would you kindly repeat that for O=c1[nH]nc(N/N=C\c2ccc(Cl)cc2)c2ccccc12 ?
Result string: 1.25

* * *

# Test system: TK-10
# Procedure Text: NCI tumour cell line growth inhibition, 48 h
Calls of active or inactive are those of the source. No stated cut-off is given here; in the data, active = GI50 up to about 1.1 µM and inactive = higher. Non-standard residues stand in square brackets, D forms with d. Residues, ends and D or L forms follow the SMILES beside them. *: point of attachment. Bn2Val = CC(C)[C@@H](C(=O)*)N(Cc1ccccc1)Cc1ccccc1; NMeV = CN[C@H](C(=O)O)C(C)C; X32 = COc1ccc(CN*)c(OC)c1; dNMeA = CN[C@H](C)C(=O)O
GI50: recorded values

Cc1ccc2nc(NC(=O)C(=O)C3C(=O)NC(=S)NC3=O)sc2c1: > 100 µM (inactive)
COc1cc2c(cc1OC)C(c1ccccc1CCCCl)=NCC2: > 100 µM (inactive)
COc1ccc(CNC(=O)[C@@H]2CCCN2C(=O)[C@@H](C)N(C)C(=O)[C@H](C(C)C)N(C)C(=O)[C@@H](NC(=O)[C@H](C(C)C)N(Cc2ccccc2)Cc2ccccc2)C(C)C)c(OC)c1 (Bn2Val-V[NMeV][dNMeA]P-X32): 4.47 µM (inactive)
C=CC(O)(CBr)CCC(Br)C(C)(C)Cl (centres undefined): > 10 µM (inactive)
O=S(=O)(c1ccccc1)N1N=C2c3ccccc3CCC[C@H]2C1c1ccccc1 (some centres undefined): > 100 µM (inactive)

Query string: # GI50 lookup, item COc1ccccc1/[N+]([O-])=C/c1ccccc1OC(=S)S
Result string: > 100 µM (inactive)

Query string: Would you kindly repeat that for O=C(c1nc2ccc(Cl)cc2nc1O)C(O)c1ccc2c(c1)OCO2 (centres undefined) ?
Result string: > 100 µM (inactive)

Query string: Would you kindly repeat that for CC(=O)OC[C@@]12CC[C@H]3C(C)(C)CCC[C@]3(C)[C@H]1C[C@@H](C1=CC(=O)O[C@H]1O)O2 ?
Result string: 3.94 µM (inactive)

Query string: Would you kindly repeat that for CC1=CCCC(OC(N)=O)C1 (centres undefined) ?
Result string: > 100 µM (inactive)

* * *

# System: NCI-H460
# Procedure Text: NCI tumour cell line growth inhibition, 48 h
Calls of active or inactive are those of the source. No stated cut-off is given here; in the data, active = GI50 up to about 1.1 µM and inactive = higher.
# valid calls are 1 = active, -1 = inactive; nothing else

C[C@@H](c1ccccc1)N(CC#N)[C@H]1CCC[C@]1(O)/C=C/c1ccc2c(c1)OCO2: -1
CC(C)(C)OC(=O)N1[C@@H]2Cc3ccc(N)cc3[C@@]1(C)c1ccccc12: -1

Query string: What did this assay record as the result for COc1ccc2c(c1)-c1nn(CCN(C)C)c3ccc(C(=O)NCCCN(C)CCCNC(=O)c4ccc5c6c(c7cc(OC)ccc7nc46)NN5CCN(C)C)c(c13)N2 ?
Result string: 1

Query string: Would you kindly repeat that for CCOC(=O)C(NC(=O)c1ccccc1)(Nc1ccc(S(=O)(=O)Nc2ccc(OC)nn2)cc1)C(F)(F)F (stereo not drawn) ?
Result string: -1

* * *

# Test system: MCF7
# Procedure Text: NCI tumour cell line growth inhibition, 48 h
Activity calls are given as the source filed them. Rule as the data show it: active = GI50 up to about 1.1 µM and inactive = higher.
# valid calls are active, inactive; nothing else

Known results for compounds:
O=C(Nc1ccccc1)c1cc2c(cc1Cl)Sc1nccn1S2(=O)=O: inactive
CCN=C=NCCCN(C)C: inactive

Query string: What did this assay record as the result for COc1ccc(/C=C/c2ccnc3ccccc23)cc1 ?
Result string: inactive

Query string: Would you kindly repeat that for O=c1c(C(c2ccccn2)c2c(O)oc3cc(O)ccc3c2=O)c(O)oc2cc(O)ccc12 ?
Result string: inactive

Query string: Would you kindly repeat that for COc1ccc(CNc2nc(NCc3ccc(OC)cc3)nc(NC3CCCC3)n2)cc1 ?
Result string: inactive

Query string: Would you kindly repeat that for COc1cc(S(=O)(=O)Nc2ccc(-c3csc(N4C(=O)CSC4c4ccccc4O)n3)cc2)ccc1Cl (configuration not stated) ?
Result string: inactive

Query string: Would you kindly repeat that for NC(=O)/C=c1/c2ccccc2n2nc3ccccc3c12 ?
Result string: inactive

Query string: Would you kindly repeat that for C[C@H]1C2Cc3cc(O)ccc3[C@@]1(C)CCN2CCc1ccc(N)cc1 ?
Result string: inactive

* * *

# Tested on: OVCAR-3
# Procedure Text: NCI tumour cell line growth inhibition, 48 h
Activity calls are given as the source filed them. No stated cut-off is given here; in the data, active = GI50 up to about 1.1 µM and inactive = higher.
# valid calls are yes = active, no = inactive; nothing else

Known results for compounds:
O=C(Nc1nnc(-c2ccccc2)o1)C(SC(=S)N1CCOCC1)c1ccccc1 (centres undefined): no
COc1ccc(N[S+]([O-])CCCc2ccccc2)cc1 (centres undefined): no
Cc1c(CNc2ccc(Cl)c(Cl)c2Cl)cnc2nc(N)nc(N)c12: no

Query string: What did this assay record as the result for CN(C)CCNc1ncnc2nc(-c3ccccc3)c(-c3ccccc3)nc12 ?
Result string: no

Query string: Would you kindly repeat that for C/C(=N\NC(=S)N(C)C)c1ncc[nH]1 ?
Result string: no

Query string: Would you kindly repeat that for [O-][S+]1c2ccccc2SCSc2ccccc21 ?
Result string: no

Query string: Would you kindly repeat that for C=C(c1ccccc1)C1ON(C)CCc2cc(OC)c(OC)cc21 (centres undefined) ?
Result string: no

Query string: Would you kindly repeat that for CCCN(CCC)CCc1ccc(OC2=CCN(C)CC2)cc1 ?
Result string: no

Query string: Would you kindly repeat that for Fc1ccc(/C=C2\COCC3=C2NC(=S)NC3c2ccc(F)cc2)cc1 (centres undefined) ?
Result string: no

Query string: Would you kindly repeat that for O=C(Oc1ccccc1)N1c2ccccc2[C@@]23O[C@]24CCC[C@H]3C#C/C=C\C#C[C@H]14 ?
Result string: no

Query string: Would you kindly repeat that for COC1C(=[N+]=[N-])C(=O)NC(=O)N1C1OC(COC(c2ccccc2)(c2ccccc2)c2ccccc2)C(O)C1O (centres undefined) ?
Result string: no

* * *

# Tested on: OVCAR-4
# Procedure Text: NCI tumour cell line growth inhibition, 48 h
Calls of active or inactive are those of the source. Cut-off read from the data, not from the text of the source: active = GI50 up to about 1.1 µM and inactive = higher.
Measured Quantity: GI50

Query string: # GI50 lookup, item O=C(O)C1(C(=O)O)CC1
Result string: > 100 µM (inactive)

Query string: Would you kindly repeat that for Cc1cc(Cl)ccc1NC(=O)C(=O)C(C(=O)c1ccc2ccccc2c1)C1OC(=O)c2ccccc21 (stereo not given) ?
Result string: 7.6 µM (inactive)

Query string: Would you kindly repeat that for CC(=O)N1N=C(c2ccc3ccccc3c2O)CC1c1cccs1 (stereo not given) ?
Result string: 27.8 µM (inactive)

* * *

# Test system: Malme-3M
# Procedure Text: NCI tumour cell line growth inhibition, 48 h
Activity calls are given as the source filed them. Cut-off read from the data, not from the text of the source: active = GI50 up to about 1.1 µM and inactive = higher.
# valid calls are active, inactive; nothing else

Query string: What did this assay record as the result for CC1=NC(C)(COC(=O)C2(C)NC(C)(CO)CO2)COC1=O (stereo not drawn) ?
Result string: inactive

Query string: Would you kindly repeat that for CCOP(=O)(CCC(O)CNc1nc(N)nc(Cl)c1/N=N/c1ccc(Cl)cc1)OCC (stereo not drawn) ?
Result string: inactive

Query string: Would you kindly repeat that for COc1ccc2[nH]c(C(=O)N3CC(CCl)c4ccc([N+](=O)[O-])cc43)cc2c1 (stereo not drawn) ?
Result string: inactive

Query string: Would you kindly repeat that for CCCCCCCCCCCCCCCC1(OC)C[N+](C)(C)CCO1 (stereo not drawn) ?
Result string: inactive

Query string: Would you kindly repeat that for O=C(CSc1nnc(-c2ccc(/N=C\c3ccc(Cl)cc3)cc2)o1)Nc1cccc([N+](=O)[O-])c1 ?
Result string: inactive

Query string: Would you kindly repeat that for CCCCCCCCCCCC1=C(O)C(=O)C(CC2=C(O)C(=O)C(CCCCCCCCCCC)=C(O)C2=O)=C(O)C1=O ?
Result string: inactive

Query string: Would you kindly repeat that for O=C(Oc1ccccc1)N1c2ccccc2[C@@]23O[C@]24CCC[C@H]3C#C/C=C\C#C[C@H]14 ?
Result string: inactive

Query string: Would you kindly repeat that for OC(CC(c1ccccc1)c1ccc(Cl)cc1)c1ccc(Cl)cc1 (stereo not drawn) ?
Result string: inactive

Query string: Would you kindly repeat that for COc1ccc(/C=C(\Cl)c2ccc(OC)c(OC)c2)cc1OC ?
Result string: inactive

Query string: Would you kindly repeat that for O=c1cc(NNc2cccc(F)c2)[nH]c(=O)[nH]1 ?
Result string: inactive

Query string: Would you kindly repeat that for CS(=O)(=O)c1ccc(-c2cc(-c3ccc(S(C)(=O)=O)cc3)[n+](-c3cc(-c4ccc(S(C)(=O)=O)cc4)c([O-])c(-c4ccc(S(C)(=O)=O)cc4)c3)c(-c3ccc(S(C)(=O)=O)cc3)c2)cc1 ?
Result string: inactive

Query string: Would you kindly repeat that for CS(=O)(=O)OCCCCOS(C)(=O)=O ?
Result string: inactive

Query string: Would you kindly repeat that for C/C(=N\NC(=S)NC(CCC(=O)O)C(=O)O)c1ccccn1 (stereo not drawn) ?
Result string: inactive

Query string: Would you kindly repeat that for CC(=O)O[C@H]1CC[C@]2(C=O)[C@H]3CC[C@]4(C)[C@@H](C5=CC(=O)OC5)CC[C@]4(O)[C@@H]3CC[C@]2(O)C1 [STROPHANTHIDIN ACETATE] ?
Result string: active

Query string: Would you kindly repeat that for O=S1(=O)c2cc(S(=O)(=O)n3ccnc3)ccc2NC2=NCCCN21 ?
Result string: inactive

Query string: Would you kindly repeat that for O=c1/c(=C/c2ccc([N+](=O)[O-])o2)sc2n1[C@@H](c1ccc(Cl)cc1)C=C(c1cc(F)c(Cl)cc1Cl)N=2 ?
Result string: inactive

Query string: Would you kindly repeat that for NC12CC3CC4C1CC1CC2C(C3)C4(N)C1 ?
Result string: inactive

Query string: Would you kindly repeat that for COc1ccc2c(c1)-c1nn(CCN(C)C)c3ccc(C(=O)NCCCN(C)CCCNC(=O)c4ccc5c6c(c7cc(OC)ccc7nc46)NN5CCN(C)C)c(c13)N2 ?
Result string: active
